Data origin: ChEMBL document CHEMBL5303304

# System: Fibroblast
# PROCEDURE DETAILS: Incucyte cell viability with human fibroblast; further: unitless GR value; below 1 slowed growth and below 0 cell loss
# Format: toxicity, cell-based
# DETAILS: 18 h, 10 µM, compound concentration 10 uM, replicate number 1
Group membership follows Growth Rate per the scheme low = under 0.4, medium = from 0.4 up to 0.7, high = 0.7 and over

MOLECULE	CLASS LABEL
COc1c(C(=O)/C=C/c2ccccc2)c(O)c(OC)c2occc12	low
CCn1c(CNC(=O)c2ncc(C)nc2N)[n+](CC)c2ccc(C(=O)N(C)CCN(C)C)cc21.Cl.Cl.[Cl-]	high
CCOC(=O)CS(=O)(=O)c1ccc([C@@H](CO)NC(=O)c2cc3c(Cl)c(Cl)c(C)cc3n2C)cc1	low
CCNC1=N[C@@H]2[C@@H](O)[C@H](O)[C@@H](CO)O[C@@H]2S1	high
CO[C@@H](C)CN1CC[C@]2(C)c3cc(O)ccc3C[C@H]1C2(C)C.Cl	high
CCCCC/C=C/C=C1/C(=O)C=C[C@@H]1C/C=C\CCCC(=O)O	high
O=C(NNC(=O)c1ccc(CNS(=O)(=O)c2ccc(F)c(Cl)c2)cc1)c1ccccc1	medium
CNC(=O)c1cccc(-c2ccc3c(N4CCOC[C@@H]4C)nc(N4CCOC[C@@H]4C)nc3n2)c1	high
CCCCCNC(=O)N1CCC(CN(Cc2ccc(Cl)cc2)Cc2ccc([N+](=O)[O-])s2)C1 (centres undefined)	medium
CC(C)Oc1ccc(Cc2ccc(NC3=NCCN3)cc2)cc1	low

Request: Exam item: assign CCOC(=O)C1Cc2ccccc2CN1C(=O)c1ccc(SC)s1 (centres undefined) to the correct category.
Response: medium

Request: Exam item: assign "O=S(=O)(Nc1nnc2cc(OCC34CC5CC(CC(C5)C3)C4)c(C3CC3)cn12)C1CC1" to the correct category.
Response: medium

Request: Exam item: assign "NC1=NC(=O)/C(=C2\CCNC(=O)c3[nH]c4ccccc4c32)N1" to the correct category.
Response: low

Request: Exam item: assign CCCCC(C)(O)C/C=C/[C@H]1[C@H](O)CC(=O)[C@@H]1CCCCCCC(=O)O (some centres undefined) to the correct category.
Response: high

Request: Exam item: assign "CCCNc1ccc2ncc(-c3ccncc3)n2n1" to the correct category.
Response: low

Request: Exam item: assign "O=C(Nc1c(-c2cccs2)nc2ccc(Cl)cn12)c1ccc(Cl)cc1" to the correct category.
Response: medium
